Form: system (HDAC6 (Homo sapiens)), quantity (pIC50), values below.
pIC50: −log10 of the molar value.

# cpd_smiles, tgt, measured_result
measured = [
    ("O=C(/C=C/c1ccccc1OC1CCN(C(=O)c2ccccc2)CC1)NO", "HDAC6 (Homo sapiens)", "5.00 to 6.00"),
    ("O=C(/C=C/c1ccccc1Oc1ccccc1)NO", "HDAC6 (Homo sapiens)", "6.00 to 7.00"),
]

## Task State measured pIC50 of the molecule `O=C(/C=C/c1ccccc1Oc1cccc(Cl)c1)NO` with HDAC6 (Homo sapiens).
Sequence (Q9UBN7 whole entry): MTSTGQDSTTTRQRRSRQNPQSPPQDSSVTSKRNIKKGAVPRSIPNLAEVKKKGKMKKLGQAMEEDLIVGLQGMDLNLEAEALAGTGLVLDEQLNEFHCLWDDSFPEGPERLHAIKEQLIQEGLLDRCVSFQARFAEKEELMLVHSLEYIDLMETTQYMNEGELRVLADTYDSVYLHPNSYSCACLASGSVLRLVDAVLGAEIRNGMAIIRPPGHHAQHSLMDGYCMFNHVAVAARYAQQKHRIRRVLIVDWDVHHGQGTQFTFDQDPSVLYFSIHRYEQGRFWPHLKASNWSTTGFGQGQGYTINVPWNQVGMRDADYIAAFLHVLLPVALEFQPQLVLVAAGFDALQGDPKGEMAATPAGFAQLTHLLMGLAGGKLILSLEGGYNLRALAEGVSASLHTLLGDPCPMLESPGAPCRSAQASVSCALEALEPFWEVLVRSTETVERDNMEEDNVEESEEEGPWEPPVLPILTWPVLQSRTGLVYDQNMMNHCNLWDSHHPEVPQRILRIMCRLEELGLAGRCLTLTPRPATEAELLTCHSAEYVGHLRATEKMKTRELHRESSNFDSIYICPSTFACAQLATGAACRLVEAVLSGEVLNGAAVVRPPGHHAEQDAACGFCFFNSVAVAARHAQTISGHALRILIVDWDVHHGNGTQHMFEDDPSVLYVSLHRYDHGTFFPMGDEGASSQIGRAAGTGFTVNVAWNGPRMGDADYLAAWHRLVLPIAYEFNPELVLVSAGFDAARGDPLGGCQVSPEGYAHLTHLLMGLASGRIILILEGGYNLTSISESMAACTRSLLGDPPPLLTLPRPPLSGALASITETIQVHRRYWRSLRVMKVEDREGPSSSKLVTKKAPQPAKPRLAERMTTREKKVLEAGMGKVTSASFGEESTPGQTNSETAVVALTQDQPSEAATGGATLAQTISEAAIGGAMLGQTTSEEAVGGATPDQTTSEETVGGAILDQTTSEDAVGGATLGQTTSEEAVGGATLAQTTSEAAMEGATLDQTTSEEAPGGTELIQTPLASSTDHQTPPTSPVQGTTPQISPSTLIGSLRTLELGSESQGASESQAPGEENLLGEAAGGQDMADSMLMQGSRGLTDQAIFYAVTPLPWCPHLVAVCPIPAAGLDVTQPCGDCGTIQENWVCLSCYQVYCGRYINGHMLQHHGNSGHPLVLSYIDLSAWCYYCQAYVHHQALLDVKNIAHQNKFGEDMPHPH
## Result 6.00 to 7.00

## Task State measured pIC50 of the molecule `O=C(/C=C/c1ccccc1Oc1ccc(Cl)c(Cl)c1)NO` with HDAC6 (Homo sapiens).
## Result 5.00 to 6.00

## Task State measured pIC50 of the molecule `Cc1cccc(Oc2ccccc2/C=C/C(=O)NO)c1` with HDAC6 (Homo sapiens).
## Result 5.00 to 6.00

## Task State measured pIC50 of the molecule `CN(C)CCOc1ccc(/C=C/C(=O)NO)c(Oc2cccc(Cl)c2)c1` with HDAC6 (Homo sapiens).
## Result 6.00 to 7.00

## Task State measured pIC50 of the molecule `COCCOc1ccc(/C=C/C(=O)NO)c(Oc2ccc(Cl)c(Cl)c2)c1` with HDAC6 (Homo sapiens).
## Result 5.00 to 6.00

## Task State measured pIC50 of the molecule `Cc1ccc(Oc2ccccc2/C=C/C(=O)NO)cc1` with HDAC6 (Homo sapiens).
## Result 6.00 to 7.00

## Task State measured pIC50 of the molecule `COc1ccc(Oc2ccccc2/C=C/C(=O)NO)cc1` with HDAC6 (Homo sapiens).
## Result 6.00 to 7.00

## Task State measured pIC50 of the molecule `O=C(/C=C/c1ccccc1Oc1ccc(Cl)cc1)NO` with HDAC6 (Homo sapiens).
## Result 5.00 to 6.00

## Task State measured pIC50 of the molecule `O=C(/C=C/c1ccccc1Oc1cccnc1)NO` with HDAC6 (Homo sapiens).
## Result 5.00 to 6.00

## Task State measured pIC50 of the molecule `O=C(/C=C/c1ccc(OCCN2CCOCC2)cc1Oc1cccc(Cl)c1)NO` with HDAC6 (Homo sapiens).
## Result 6.00 to 7.00
